The origin of these recorded values is paper PMC3504387.

Molecular target: T1, GST–PPARγ fusion protein (purified ligand binding domain of PPARγ)
T1 chain: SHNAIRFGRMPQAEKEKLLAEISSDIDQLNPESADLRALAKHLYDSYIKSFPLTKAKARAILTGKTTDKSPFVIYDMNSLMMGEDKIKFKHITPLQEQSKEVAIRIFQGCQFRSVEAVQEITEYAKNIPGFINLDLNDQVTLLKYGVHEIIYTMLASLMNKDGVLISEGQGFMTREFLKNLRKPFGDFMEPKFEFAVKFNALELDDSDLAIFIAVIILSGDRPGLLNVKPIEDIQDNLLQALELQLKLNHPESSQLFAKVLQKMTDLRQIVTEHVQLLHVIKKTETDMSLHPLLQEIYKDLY
Assay: FRET or BRET; homogeneous TR-FRET as a1, 12-concentration dose–response of rosiglitazone; the EC50 is of the compound; delta ratio in % of the reference compound at 10 μM (RO4899100 for PPARα, edaglitazone for PPARγ)
Conditions: both partners purified
Where no end group is shown, it is not given here. The star is where a group is joined. Biotin = O=C1N[C@H]2[C@H](CS[C@H]2CCCCC(=O)*)N1; Ahx = NCCCCCC(=O)O
EC50 of rosiglitazone for recruitment values, listed per item

binder | EC50 of rosiglitazone for recruitment / µM
{Biotin-Ahx}-TSGPQTPQAQQKSLLQQLLTE (source: synthetic peptide (Jerini or Biosynthan, Berlin)) [SRC1_M4 cofactor peptide (steroid receptor co-activator 1, motif 4)] | 0.0235
{Biotin-Ahx}-GNTKNHPMLMNLLKDNPAQDF (thyroid hormone receptor-associated protein complex 220 kDa component (TRAP220), motif 2, residues 637-657; also called TRAP220_M2; TRAP220 M2; source: synthetic peptide (Jerini or Biosynthan, Berlin)) | 0.0413
{Biotin-Ahx}-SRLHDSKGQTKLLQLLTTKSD (transcriptional intermediary factor 2 (TIF2), motif 1, residues 630-650; source: synthetic peptide (Jerini or Biosynthan, Berlin)) [TIF2_M1 cofactor peptide (transcriptional intermediary factor 2, motif 1)] | 0.951
